Tested on: 186277-243-T-J2-PDC complex spheroid viability
Assay: Anticancer human tumor 186277-243-T-J2-PDC patient-derived colon adenocarcinoma cell line growth inhibition [GQUAD]
Settings: second compound 0.316 µM; first compound 0.0316 µM; active compounds read low
Text: DNA G-quadruplex Stabilizer Agents in Combinations in Complex Spheroids A high-throughput screen of multi-cell type tumor spheroids was designed to identify active combinations of DNA G-quadruplex stabilizer agents and targeted small molecules. […] Compounds. […] If the clinical Cmax for an agent had not been determined, the highest concentration tested was 10 microM. […]
property.name: viability, T/C (%)

INSERT INTO results (molecule, property_name, uom, recorded_number) VALUES
  ('C=CCn1c(=O)c2cnc(Nc3ccc(N4CCN(C)CC4)cc3)nc2n1-c1cccc(C(C)(C)O)n1 + CN(C)c1ccc(Nc2c3ccc(NC(=O)CCN4CCCC4)cc3nc3cc(NC(=O)CCN4CCCC4)ccc23)cc1', 'viability, T/C', '%', 96.8),
  ('Cn1ncnc1[C@H]1c2n[nH]c(=O)c3cc(F)cc(c23)N[C@@H]1c1ccc(F)cc1 + CN(C)c1ccc(Nc2c3ccc(NC(=O)CCN4CCCC4)cc3nc3cc(NC(=O)CCN4CCCC4)ccc23)cc1', 'viability, T/C', '%', 115),
  ('CC1COCCN1c1cc(C2(S(C)(=N)=O)CC2)nc(-c2ccnc3[nH]ccc23)n1 (stereo not drawn) + Cc1cnc(CNC(=O)c2c(=O)c3ccc(N4CCCN(C)CC4)nc3n3c2sc2ccccc23)cn1', 'viability, T/C', '%', 73.3);

====

System: 186277-243-T-J2-PDC complex spheroid viability
Assay: Anticancer human tumor 186277-243-T-J2-PDC cell line growth inhibition [GQUAD];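 further: spheroids exposed to drugs for 7 days; 100% = DMSO vehicle control viability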
Settings: second compound 0.1 µM; first compound 0.0316 µM; active compounds read low
property.name: viability, T/C (%)

INSERT INTO measurements (compound, uom, recorded_number) VALUES
  ('C=CC(=O)N1CCN(c2nc(=O)n(-c3c(C)ccnc3C(C)C)c3nc(-c4c(O)cccc4F)c(F)cc23)C(C)C1 (stereo unspecified) + CN(C)c1ccc(Nc2c3ccc(NC(=O)CCN4CCCC4)cc3nc3cc(NC(=O)CCN4CCCC4)ccc23)cc1', '%', 111),
  ('CC[C@@]1(O)C(=O)OCc2c1cc1n(c2=O)Cc2cc3c(CN(C)C)c(O)ccc3nc2-1 + Cc1[nH]c2ccc(F)cc2c1-c1nc2c3cccnc3c3ncccc3c2[nH]1', '%', 93.7),
  ('O=c1[nH]cc(F)c(=O)[nH]1 + CN(C)c1ccc(Nc2c3ccc(NC(=O)CCN4CCCC4)cc3nc3cc(NC(=O)CCN4CCCC4)ccc23)cc1', '%', 98.9),
  ('COc1cc(C2c3cc4c(cc3C(OC3OC5COC(C)OC5C(O)C3O)C3COC(=O)C23)OCO4)cc(OC)c1O (stereo unspecified) + Cc1cnc(CNC(=O)c2c(=O)c3ccc(N4CCCN(C)CC4)nc3n3c2sc2ccccc23)cn1', '%', 70.8),
  ('O=C(c1cc(Cc2n[nH]c(=O)c3ccccc23)ccc1F)N1CCN(C(=O)C2CC2)CC1 + Cc1cnc(CNC(=O)c2c(=O)c3ccc(N4CCCN(C)CC4)nc3n3c2sc2ccccc23)cn1', '%', 80.7),
  ('CC1COCCN1c1cc(C2(O)CC3CCC(C2)O3)c2cnn(-c3ccn[nH]3)c2n1 (stereo unspecified) + CN(C)c1ccc(Nc2c3ccc(NC(=O)CCN4CCCC4)cc3nc3cc(NC(=O)CCN4CCCC4)ccc23)cc1', '%', 51.8),
  ('C=CC(=O)N1CCN(c2nc(=O)n(-c3c(C)ccnc3C(C)C)c3nc(-c4c(O)cccc4F)c(F)cc23)C(C)C1 (stereo unspecified) + Cc1cnc(CNC(=O)c2c(=O)c3ccc(N4CCCN(C)CC4)nc3n3c2sc2ccccc23)cn1', '%', 84.6),
  ('CC(C)n1c(=O)n(C)c2cnc3cc(F)c(-c4ccc(OCCCN5CCCCC5)nc4)cc3c21 + Cc1[nH]c2ccc(F)cc2c1-c1nc2c3cccnc3c3ncccc3c2[nH]1', '%', 108),
  ('CCc1c2c(nc3ccc(O)cc13)-c1cc3c(c(=O)n1C2)COC(=O)[C@]3(O)CC + Cc1[nH]c2ccc(F)cc2c1-c1nc2c3cccnc3c3ncccc3c2[nH]1', '%', 36.5),
  ('COc1cccc2c1C(=O)c1c(O)c3c(c(O)c1C2=O)CC(O)(C(=O)CO)CC3OC1CC(N)C(O)C(C)O1 (stereo unspecified) + Cc1cnc(CNC(=O)c2c(=O)c3ccc(N4CCCN(C)CC4)nc3n3c2sc2ccccc23)cn1', '%', 86.5),
  ('Cc1cccc(N(C)C(=O)C2C(O)CCN2c2nc(C)cc(C(F)(F)F)c2C#N)c1 (stereo unspecified) + Cc1[nH]c2ccc(F)cc2c1-c1nc2c3cccnc3c3ncccc3c2[nH]1', '%', 104);

====

Tested on: 186277-243-T-J2-PDC complex spheroid viability
Assay: Anticancer human tumor 186277-243-T-J2-PDC cell line growth inhibition [GQUAD];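 further: spheroids exposed to drugs for 7 days; 100% = DMSO vehicle control viability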
Settings: second compound 10 µM; first compound 1 µM; active compounds read low
property.name: viability, T/C (%)

INSERT INTO measurements (compound, test_target, property_name, recorded_number) VALUES
  ('O=C(c1cc(Cc2n[nH]c(=O)c3ccccc23)ccc1F)N1CCN(C(=O)C2CC2)CC1 + CN(C)c1ccc(Nc2c3ccc(NC(=O)CCN4CCCC4)cc3nc3cc(NC(=O)CCN4CCCC4)ccc23)cc1', '186277-243-T-J2-PDC complex spheroid viability', 'viability, T/C', 111),
  ('COc1cc(C2c3cc4c(cc3C(OC3OC5COC(C)OC5C(O)C3O)C3COC(=O)C23)OCO4)cc(OC)c1O (stereo not drawn) + CN(C)c1ccc(Nc2c3ccc(NC(=O)CCN4CCCC4)cc3nc3cc(NC(=O)CCN4CCCC4)ccc23)cc1', '186277-243-T-J2-PDC complex spheroid viability', 'viability, T/C', 50.9),
  ('Nc1ccn(C2OC(CO)C(O)C2(F)F)c(=O)n1 (stereo not drawn) + Cc1[nH]c2ccc(F)cc2c1-c1nc2c3cccnc3c3ncccc3c2[nH]1', '186277-243-T-J2-PDC complex spheroid viability', 'viability, T/C', 9.38);

====

System: 186277-243-T-J2-PDC complex spheroid viability
Assay: Anticancer human tumor 186277-243-T-J2-PDC cell line growth inhibition [GQUAD];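 further: spheroids exposed to drugs for 7 days; 100% = DMSO vehicle control viability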
Conditions: second compound 1 µM; first compound 3.16 µM; active compounds read low
property.name: viability, T/C (%)

INSERT INTO measurements (compound, uom, recorded_number) VALUES
  ('O=C(NO)c1cnc(N2CCN(S(=O)(=O)c3ccc4ccccc4c3)CC2)nc1 + Cc1[nH]c2ccc(F)cc2c1-c1nc2c3cccnc3c3ncccc3c2[nH]1', '%', 0.11),
  ('CC(=O)O[C@H]1C(=O)[C@@]2(C)[C@H]([C@H](OC(=O)c3ccccc3)[C@]3(O)C[C@H](OC(=O)[C@H](O)[C@@H](NC(=O)c4ccccc4)c4ccccc4)C(C)=C1C3(C)C)[C@]1(OC(C)=O)CO[C@@H]1C[C@@H]2O + CN(C)c1ccc(Nc2c3ccc(NC(=O)CCN4CCCC4)cc3nc3cc(NC(=O)CCN4CCCC4)ccc23)cc1', '%', 4.16),
  ('CC1COCCN1c1cc(C2(S(C)(=N)=O)CC2)nc(-c2ccnc3[nH]ccc23)n1 (stereo not drawn) + CN(C)c1ccc(Nc2c3ccc(NC(=O)CCN4CCCC4)cc3nc3cc(NC(=O)CCN4CCCC4)ccc23)cc1', '%', 8.32);

====

System: 186277-243-T-J2-PDC complex spheroid viability
Experiment: Anticancer human tumor 186277-243-T-J2-PDC cell line growth inhibition [GQUAD]; active = viability on the fitted dose curve at most 10% of control; inactive = the rest;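 further: spheroids exposed to drugs for 7 days; 100% = DMSO vehicle control viability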
Settings: second compound 0.316 µM; first compound 1 µM
Outcomes: 1 for active, -1 for inactive

INSERT INTO measurements (compound, group) VALUES
  ('Cc1cccc(N(C)C(=O)C2C(O)CCN2c2nc(C)cc(C(F)(F)F)c2C#N)c1 (stereo unspecified) + Cc1cnc(CNC(=O)c2c(=O)c3ccc(N4CCCN(C)CC4)nc3n3c2sc2ccccc23)cn1', -1),
  ('CC1COCCN1c1cc(-c2ccnn2C)c2ccnc(-c3ccn[nH]3)c2n1 (stereo unspecified) + CN(C)c1ccc(Nc2c3ccc(NC(=O)CCN4CCCC4)cc3nc3cc(NC(=O)CCN4CCCC4)ccc23)cc1', 1),
  ('Nc1ccn(C2OC(CO)C(O)C2(F)F)c(=O)n1 (stereo unspecified) + Cc1cnc(CNC(=O)c2c(=O)c3ccc(N4CCCN(C)CC4)nc3n3c2sc2ccccc23)cn1', -1),
  ('COc1ncnc(C2CC2)c1-c1ncc2cnn(Cc3ccc(-c4nc(C(F)(F)F)cn4C(C)C)cc3)c2n1 + Cc1[nH]c2ccc(F)cc2c1-c1nc2c3cccnc3c3ncccc3c2[nH]1', -1),
  ('CCCS(=O)(=O)Nc1ccc(F)c(C(=O)c2c[nH]c3ncc(-c4ccc(Cl)cc4)cc23)c1F + Cc1[nH]c2ccc(F)cc2c1-c1nc2c3cccnc3c3ncccc3c2[nH]1', -1),
  ('O=C(c1cc(Cc2n[nH]c(=O)c3ccccc23)ccc1F)N1CCN(C(=O)C2CC2)CC1 + CN(C)c1ccc(Nc2c3ccc(NC(=O)CCN4CCCC4)cc3nc3cc(NC(=O)CCN4CCCC4)ccc23)cc1', -1),
  ('CC1COCCN1c1cc(C2(O)CC3CCC(C2)O3)c2cnn(-c3ccn[nH]3)c2n1 (stereo unspecified) + Cc1[nH]c2ccc(F)cc2c1-c1nc2c3cccnc3c3ncccc3c2[nH]1', 1),
  ('O=C(NO)c1cnc(N2CCN(S(=O)(=O)c3ccc4ccccc4c3)CC2)nc1 + CN(C)c1ccc(Nc2c3ccc(NC(=O)CCN4CCCC4)cc3nc3cc(NC(=O)CCN4CCCC4)ccc23)cc1', 1),
  ('CC1COCCN1c1cc(C2(O)CC3CCC(C2)O3)c2cnn(-c3ccn[nH]3)c2n1 (stereo unspecified) + CN(C)c1ccc(Nc2c3ccc(NC(=O)CCN4CCCC4)cc3nc3cc(NC(=O)CCN4CCCC4)ccc23)cc1', 1),
  ('C#Cc1c(F)ccc2cc(O)cc(-c3ncc4c(N5CC6CCC(C5)N6)nc(OCC56CCCN5CC(F)C6)nc4c3F)c12 (stereo unspecified) + Cc1[nH]c2ccc(F)cc2c1-c1nc2c3cccnc3c3ncccc3c2[nH]1', 1),
  ('COc1ccc([C@@H](O)c2cc(-c3ncnc4cc(N5CCOCC5)ccc34)c(F)cc2Cl)nn1 + Cc1cnc(CNC(=O)c2c(=O)c3ccc(N4CCCN(C)CC4)nc3n3c2sc2ccccc23)cn1', -1),
  ('C=CC(=O)N1CCN(c2nc(=O)n(-c3c(C)ccnc3C(C)C)c3nc(-c4c(O)cccc4F)c(F)cc23)C(C)C1 (stereo unspecified) + Cc1[nH]c2ccc(F)cc2c1-c1nc2c3cccnc3c3ncccc3c2[nH]1', -1),
  ('COc1ncnc(C2CC2)c1-c1ncc2cnn(Cc3ccc(-c4nc(C(F)(F)F)cn4C(C)C)cc3)c2n1 + Cc1cnc(CNC(=O)c2c(=O)c3ccc(N4CCCN(C)CC4)nc3n3c2sc2ccccc23)cn1', -1),
  ('C=CCn1c(=O)c2cnc(Nc3ccc(N4CCN(C)CC4)cc3)nc2n1-c1cccc(C(C)(C)O)n1 + Cc1cnc(CNC(=O)c2c(=O)c3ccc(N4CCCN(C)CC4)nc3n3c2sc2ccccc23)cn1', -1),
  ('CC1COCCN1c1cc(-c2ccnn2C)c2ccnc(-c3ccn[nH]3)c2n1 (stereo unspecified) + Cc1[nH]c2ccc(F)cc2c1-c1nc2c3cccnc3c3ncccc3c2[nH]1', 1),
  ('Cc1cccc(N(C)C(=O)C2C(O)CCN2c2nc(C)cc(C(F)(F)F)c2C#N)c1 (stereo unspecified) + CN(C)c1ccc(Nc2c3ccc(NC(=O)CCN4CCCC4)cc3nc3cc(NC(=O)CCN4CCCC4)ccc23)cc1', -1),
  ('O=C(NO)c1cnc(N2CCN(S(=O)(=O)c3ccc4ccccc4c3)CC2)nc1 + Cc1[nH]c2ccc(F)cc2c1-c1nc2c3cccnc3c3ncccc3c2[nH]1', 1),
  ('O=c1[nH]cc(F)c(=O)[nH]1 + Cc1cnc(CNC(=O)c2c(=O)c3ccc(N4CCCN(C)CC4)nc3n3c2sc2ccccc23)cn1', -1),
  ('C#Cc1c(F)ccc2cc(O)cc(-c3ncc4c(N5CC6CCC(C5)N6)nc(OCC56CCCN5CC(F)C6)nc4c3F)c12 (stereo unspecified) + Cc1cnc(CNC(=O)c2c(=O)c3ccc(N4CCCN(C)CC4)nc3n3c2sc2ccccc23)cn1', 1),
  ('Nc1ccn(C2OC(CO)C(O)C2(F)F)c(=O)n1 (stereo unspecified) + CN(C)c1ccc(Nc2c3ccc(NC(=O)CCN4CCCC4)cc3nc3cc(NC(=O)CCN4CCCC4)ccc23)cc1', 1),
  ('C#Cc1c(F)ccc2cc(O)cc(-c3ncc4c(N5CC6CCC(C5)N6)nc(OCC56CCCN5CC(F)C6)nc4c3F)c12 (stereo unspecified) + CN(C)c1ccc(Nc2c3ccc(NC(=O)CCN4CCCC4)cc3nc3cc(NC(=O)CCN4CCCC4)ccc23)cc1', -1);

Cited source: PubChem BioAssay AID2060512
